Biological target: human CXCR4 (cell-expressed) (human, UniProt P61073 1-352)
Sequence (P61073 whole entry): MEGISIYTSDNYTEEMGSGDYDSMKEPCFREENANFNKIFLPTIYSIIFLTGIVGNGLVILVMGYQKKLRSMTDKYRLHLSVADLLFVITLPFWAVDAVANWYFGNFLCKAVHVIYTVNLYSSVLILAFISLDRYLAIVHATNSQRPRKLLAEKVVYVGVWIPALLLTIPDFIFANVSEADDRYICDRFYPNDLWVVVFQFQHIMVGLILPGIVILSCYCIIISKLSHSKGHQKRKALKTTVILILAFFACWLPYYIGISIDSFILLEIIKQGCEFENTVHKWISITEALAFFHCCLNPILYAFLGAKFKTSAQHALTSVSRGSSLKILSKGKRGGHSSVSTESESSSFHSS
Experiment: cell-based or functional assay
Note to self: IC50, cAMP HTRF assay, CXCR4 BacMam HEK-293 cells, 5.5 nM CXCL12 under 30 nM means Y, ties and anything higher get N.

CL-82658 (antibody, human IgG4 S228P, kappa, V domains shown, Tested in human IgG4-PE format; also called CL-82658 (IgG4-PE format)) VH: QVQLVESGGGVVQPGRSLRLSCAASGFSFSSYGMHWVRQAPGKGLEWVAVISYDGSNKYYADSVKGRFTISRDNSKNTLYLQMNSLRGEDTAVYYCSKGSLTPRRGYYYSYGMDVWGQGTTVTVSS VL: DIQMTQSPSSLSASVGDRVTITCRASQGIRNDLSWYQQKPGKAPKRLIYAASSLQSGVPSRFSGSGSGTEFTLTISSLQPEDFATYYCLQHNGYPFTFGPGTKVDIKR ... Y
CL-148712 (antibody, human IgG4 S228P, kappa, V domains shown) VH: EVQLVESGGDLVQPGGSLRLSCAASGFTFYSYAMNWVRQAPGKGLKWVSGISGSGDITYYADSVKGRFTISRDNSKNTLYLQMHSLRAEDTAVYYCAKGQLERRYYKYYGMDVWGQGTTVTVSS VL: DIQMTQSPSSLSASVGDRVTITCRANQGIRNDLGWYQQKPGKAPKRLIYGASSLKSGVPSRFSGSGSGTEFTLTISSLQPEDFATYYCLQQNSYPLTFGGGTKVEIKR ... Y
CL-82571 (antibody, human IgG4 S228P, kappa, V domains shown, Tested in human IgG4-PE format) VH: EVQLVESGGGLVQPGGSLKLSCAASGFTFSGSAMHWVRQASGKGLEWVGRIRSKANKYATAYAASVKGRFTISRDDSKNTAYVQMKSLKTEDTAVYYCTWELSNYDILTGFYYGMDVWGQGTTVTVSS VL: DIQMTQSPSTLSASVGDRVTITCRASQSISNWLAWYQQKPGKAPKVLIYKASSLESGVPSRFSGSGSGTEFTLTISSLQPDDFATYYCQQYNSFSWTFGQGTKVEIKR ... N

Incoming: Threshold test, IC50, cAMP HTRF assay, CXCR4 BacMam HEK-293 cells, 5.5 nM CXCL12 < 30 nM: CL-82455 (antibody, human IgG4 S228P, kappa, V domains shown) VH: QVQLVESGGGVVQPGRSLRLSCAASGFTFNNYGMHWVRQAPGKGLEWVAVIWNDGSNKYYGDSVKGRFTISRDNSKNTLYLQMNSLRAEDTAVYYCARGGGYYGSGKHYRGYYYNGMGVWGQGTPVTVSS VL: EIVMTQSPATLSVSPGERATLSCRASQSVSSNLAWYQQKPGQAPRLLIYGASTRATGIPARFSGSGSGTEVTLTISSLQSEDFTIYYCQQYNNWPWTFGQGTKVDIKR
Outgoing: N

Incoming: How about CL-82558 (antibody, human IgG4 S228P, kappa, V domains shown, Tested in human IgG4-PE format; also called CL-82558 (IgG4-PE format)) VH: QVQLQESGPGLVKPSQTLSLTCTVSGGSISSGGYYWSWIRQVPGKGLEWIGYISYSGNTFYSPSLKSRVTISVDTSENKFSLRLTSVTAADTAVYFCARDRRIPMLRGVKGYYYGLDVWGQGTTVTVSS VL: DIVMTQSPLSLPVIPGEPASISCRSSQSLLHRNGYKYLDWYLQKPGQSPQLLIYLGSNRASGVPARFSGSGSGTDFTLKISRVEAEDVGVYYCMQALQTPWTFGQGTKVEIKR ?
Outgoing: Y

Incoming: Please give the result for CL-82458 (antibody, human IgG4 S228P, kappa, V domains shown, Tested in human IgG4-PE format; also called CL-82458 (IgG4-PE format)) VH: EVQLVESGGDLVQPGGSLRLSCAASGFTFYSYAMNWVRQAPGKGLKWVSGISGSGDITYYADSVKGRFTISRDNSKNTLYLQMHSLRPEDTAIYYCAKGQLERRYYKYYGMDVWGQGTTVTVSS VL: DIQMTQSPSSLSASVGDRVTITCRANQGIRNDLGWYQQKPGKAPKRLIYGASSLKSGVPSRFSGSGSGTEFTLTISSLQPEDFATYYCLQQNSYPLTFGGGTKVEIKR too.
Outgoing: N
